Tested on: P. falciparum male gametocytes
MEASUREMENT NOTES: P. falciparum Dual Gamete Formation Assay (PfDGFA), male readout (exflagellation)
Assay type: cell-based, Plasmodium falciparum NF54
ASSAY CONTEXT: 2µM, 24h preincubation with gametocytes prior to induction of gametogenesis; replicate R4
Method: […] The Pf DGFA was performed as described in Delves et al. 2016 [17]. […] Exflagellation was recorded by capturing 10 frames over 1 s under brightfield illumination using a x4 objective with a 1.5x zoom (effectively x6) attached to an automated Nikon Ti fluorescence microscope. […] The plates were then returned to the microscope and female gametes imaged at x6 using fluorescence microscopy. […]
Hi, to clarify the labels: yes covers % inhibition male (individual replicates) R4 from 40% upward, no covers anything below 40%.

>  <COMPOUND>
CC(=O)Nc1ccc2[nH]cc(C3CCN(CC4CCN(C(=O)/C=C/c5ccc(Cl)c(Cl)c5)CC4)CC3)c2n1 [TCMDC-140112]

>  <GROUP>
yes

$$$$

Consider the record given below.
q: Answer whether % inhibition male (individual replicates) R4 of CC(C)N1CCN(C(CN2CCN(CCCOc3ccccc3-c3ccccc3)CC2)c2ccc(F)cc2)CC1.Cl (stereo not drawn) [TCMDC-135499] is greater than or equal to 40%.
a: no

---

Test system: HepG2 cells
MEASUREMENT NOTES: HepG2 cytotoxicity counter-screen
ASSAY CONTEXT: cytotoxic activity against HepG2 cells
Hi, to clarify the labels: 1 (yes) covers Tox50 from 2 µM upward, 0 (no) covers anything below 2 µM.

Look over these answered cases.
>  <COMPOUND>
CCOc1cc(OCC)c2ccccc2c1CNCCCCCCNCc1c(OCC)cc(OCC)c2ccccc12.CS(=O)(=O)O

>  <EXPERIMENTAL SYSTEM>
HepG2 cells

>  <GROUP>
1 (yes)

$$$$
>  <COMPOUND>
COCCCNC(=S)NN=C(C)c1ccccn1

>  <EXPERIMENTAL SYSTEM>
HepG2 cells

>  <GROUP>
0 (no)

$$$$
>  <COMPOUND>
CCN(CC)CCOc1ccc(C(O)(C#CC(O)(c2ccc(C)cc2)c2ccc(OCCN(CC)CC)cc2)c2ccc(C)cc2)cc1 (centres unmarked)

>  <EXPERIMENTAL SYSTEM>
HepG2 cells

>  <GROUP>
1 (yes)

$$$$
>  <COMPOUND>
CCc1c(CCNCCCCCCNC(C)(C)Cc2ccc3c(c2CC)OCO3)ccc(OC)c1OC.Cl

>  <EXPERIMENTAL SYSTEM>
HepG2 cells

>  <GROUP>
1 (yes)

$$$$
>  <COMPOUND>
CN(CCCNCc1cccc2ccccc12)CCCNCc1cccc2ccccc12.Cl

>  <EXPERIMENTAL SYSTEM>
HepG2 cells

>  <GROUP>
1 (yes)

$$$$

q: Answer whether Tox50 of CCOc1c(CCNCCCCNCCc2ccc3ccccc3c2OCC)ccc2ccccc12.CS(=O)(=O)O is greater than or equal to 2 µM.
a: 1 (yes)

q: Answer whether Tox50 of C=CC(C)C1OC(=O)c2cc(OC)cc(OC)c21 (centres unmarked) is greater than or equal to 2 µM.
a: 0 (no)

q: Answer whether Tox50 of S=C(NN=Cc1ccccn1)NC1CC2C=CC1C2 (centres unmarked) is greater than or equal to 2 µM.
a: 0 (no)
